// reported human TLR9 activity, reporter signal for each item listed
- Study system: human TLR9 (Homo sapiens, UniProt Q9NR96)
- Construct: host or cells: HEK293 (TLR9/NF-κB/SEAPorter)
- Assay overview: Human TLR9 reporter gene inhibitory activity assay (NF-κB/SEAP HEK293)
- Assay type: cell-based
- Experimental setup: compound 0.1 nM (as headed); CpG2006 500 nM
Metric name: human TLR9 activity, reporter signal

CCOc1nc(C)c2nc(-c3cncc(F)c3)n(Cc3ccc(CN4C[C@@H]5C[C@H]4CN5C)cc3)c2n1 [Cpd-7] :: 0.3963
CCOc1nc(N)c2nc(-c3cncc(F)c3)n(Cc3ccc(CN4C[C@@H]5C[C@H]4CN5C)cc3)c2n1 [Cpd-6] :: 0.3836
CCN(CCO)CCCC(C)Nc1ccnc2cc(Cl)ccc12 (stereo not shown) [HCQ, hydroxychloroquine, reference compound] :: 0.2912
CCCCOc1nc(N)c2nc(-c3cccnc3)n(Cc3ccccc3)c2n1 [Cpd-5] :: 0.4068

====

- Assay overview: Pharmacokinetic profiling after oral dose in NZB/W F1 mice
- Format: in vivo, mouse
- Experimental setup: female, NZB/W F1, mouse, plasma, oral, 100 mg/kg, 100 mg/kg po; 6 h; read-out: plasma Concentration, individual mouse
Metric name: concentration at 6 h

CCOc1nc(C)c2nc(-c3cncc(F)c3)n(Cc3ccc(CN4C[C@@H]5C[C@H]4CN5C)cc3)c2n1 [Cpd-7] :: 658 ng/mL

====

- Study system: human TLR9 (Homo sapiens)
- Construct: host or cells: HEK293 (TLR9/NF-κB/SEAPorter)
- Sequence (Q9NR96 26-1032): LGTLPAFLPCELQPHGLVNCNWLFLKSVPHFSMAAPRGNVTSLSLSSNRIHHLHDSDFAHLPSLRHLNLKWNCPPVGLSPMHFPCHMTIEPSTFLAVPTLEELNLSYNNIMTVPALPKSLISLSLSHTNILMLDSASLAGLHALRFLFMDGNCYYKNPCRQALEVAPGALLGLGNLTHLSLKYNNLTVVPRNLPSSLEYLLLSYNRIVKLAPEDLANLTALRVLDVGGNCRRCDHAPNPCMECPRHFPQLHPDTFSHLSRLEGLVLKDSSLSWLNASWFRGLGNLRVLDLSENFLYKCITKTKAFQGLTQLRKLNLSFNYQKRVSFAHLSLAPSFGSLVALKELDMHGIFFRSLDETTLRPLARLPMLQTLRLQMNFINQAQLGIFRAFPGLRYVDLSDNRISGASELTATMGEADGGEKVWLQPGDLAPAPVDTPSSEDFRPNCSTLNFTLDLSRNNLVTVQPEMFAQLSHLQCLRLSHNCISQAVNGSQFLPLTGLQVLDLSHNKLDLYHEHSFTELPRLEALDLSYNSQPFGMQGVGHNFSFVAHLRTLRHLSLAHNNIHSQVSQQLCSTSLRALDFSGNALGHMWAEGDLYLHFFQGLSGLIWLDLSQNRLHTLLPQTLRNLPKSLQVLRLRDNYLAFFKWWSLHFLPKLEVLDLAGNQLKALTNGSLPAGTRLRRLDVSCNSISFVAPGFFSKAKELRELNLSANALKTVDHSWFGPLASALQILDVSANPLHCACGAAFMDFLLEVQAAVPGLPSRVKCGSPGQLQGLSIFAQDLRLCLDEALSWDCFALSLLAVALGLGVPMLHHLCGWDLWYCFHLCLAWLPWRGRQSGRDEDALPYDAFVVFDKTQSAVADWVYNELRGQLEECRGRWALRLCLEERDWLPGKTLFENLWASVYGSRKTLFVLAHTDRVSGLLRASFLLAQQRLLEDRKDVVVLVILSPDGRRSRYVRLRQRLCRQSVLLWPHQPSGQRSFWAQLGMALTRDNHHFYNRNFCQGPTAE
- Assay overview: Human TLR9 reporter gene inhibitory activity assay (NF-κB/SEAP HEK293)
- Format: cell-based
- Experimental setup: compound 0.3 nM (as headed); CpG2006 500 nM
Metric name: human TLR9 activity, reporter signal

CCOc1nc(N)c2nc(-c3cncc(F)c3)n(Cc3ccc(CN4C[C@@H]5C[C@H]4CN5C)cc3)c2n1 [Cpd-6] :: 0.372
CCN(CCO)CCCC(C)Nc1ccnc2cc(Cl)ccc12 (stereo not shown) [HCQ, hydroxychloroquine, reference compound] :: 0.1984
CCCCOc1nc(N)c2nc(-c3cccnc3)n(Cc3ccccc3)c2n1 [Cpd-5] :: 0.4193
CCOc1nc(C)c2nc(-c3cncc(F)c3)n(Cc3ccc(CN4C[C@@H]5C[C@H]4CN5C)cc3)c2n1 [Cpd-7] :: 0.3799

====

- Assay overview: Pharmacokinetic profiling after oral dose in NZB/W F1 mice
- Type: in vivo, mouse
- Experimental setup: female, NZB/W F1, mouse, plasma, oral, 100 mg/kg, 100 mg/kg po; 3 h; read-out: plasma Concentration, individual mouse
Metric name: concentration at 3 h (ng/mL)

CCOc1nc(C)c2nc(-c3cncc(F)c3)n(Cc3ccc(CN4C[C@@H]5C[C@H]4CN5C)cc3)c2n1 :: 2650

====

- Assay overview: Pharmacokinetic profiling after oral dose in NZB/W F1 mice
- Assay type: in vivo, mouse
- Experimental setup: female, NZB/W F1, mouse, plasma, oral, 100 mg/kg, 100 mg/kg po; 24 h; n = 3; read-out: plasma Concentration, Mean
Metric name: concentration at 24 h (ng/mL)

CCOc1nc(C)c2nc(-c3cncc(F)c3)n(Cc3ccc(CN4C[C@@H]5C[C@H]4CN5C)cc3)c2n1 :: 8.63

====

- Study system: TLR7 (Homo sapiens)
- Sequence (Q9NYK1 27-1049): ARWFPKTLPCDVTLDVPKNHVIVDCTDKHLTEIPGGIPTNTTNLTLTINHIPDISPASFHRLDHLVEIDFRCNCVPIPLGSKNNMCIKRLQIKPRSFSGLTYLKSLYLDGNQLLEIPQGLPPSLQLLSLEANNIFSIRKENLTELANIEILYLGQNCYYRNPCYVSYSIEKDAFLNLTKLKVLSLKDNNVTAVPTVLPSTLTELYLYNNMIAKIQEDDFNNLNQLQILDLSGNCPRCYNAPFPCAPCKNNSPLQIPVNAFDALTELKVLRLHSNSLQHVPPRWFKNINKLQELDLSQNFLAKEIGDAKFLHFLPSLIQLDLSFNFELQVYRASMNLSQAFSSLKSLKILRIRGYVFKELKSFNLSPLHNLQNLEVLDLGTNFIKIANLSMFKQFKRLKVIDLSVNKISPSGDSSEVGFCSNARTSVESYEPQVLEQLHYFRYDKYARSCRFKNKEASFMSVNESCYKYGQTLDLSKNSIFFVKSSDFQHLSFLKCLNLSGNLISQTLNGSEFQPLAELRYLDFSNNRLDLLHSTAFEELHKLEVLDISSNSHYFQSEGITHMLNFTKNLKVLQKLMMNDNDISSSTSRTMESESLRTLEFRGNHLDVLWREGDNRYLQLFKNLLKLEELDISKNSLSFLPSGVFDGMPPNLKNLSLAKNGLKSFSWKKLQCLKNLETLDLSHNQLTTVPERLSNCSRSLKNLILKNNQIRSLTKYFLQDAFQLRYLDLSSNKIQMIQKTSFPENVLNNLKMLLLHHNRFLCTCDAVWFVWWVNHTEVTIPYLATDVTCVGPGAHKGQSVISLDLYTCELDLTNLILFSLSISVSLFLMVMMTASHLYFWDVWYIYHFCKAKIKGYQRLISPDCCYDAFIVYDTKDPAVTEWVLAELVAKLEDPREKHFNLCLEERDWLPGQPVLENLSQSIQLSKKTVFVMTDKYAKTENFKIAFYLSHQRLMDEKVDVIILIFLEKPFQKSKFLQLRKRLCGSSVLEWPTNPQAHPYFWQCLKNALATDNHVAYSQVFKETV
- Assay overview: Human TLR7 reporter gene inhibitory activity assay (NF-κB/SEAP HEK293)
- Assay type: cell-based
- Set-up: host or cells: HEK293 (TLR7/NF-κB/SEAPorter)
- Experimental setup: compound 0.3 nM (as headed); R848 200 nM
Metric name: human TLR7 activity, reporter signal

CCCCOc1nc(N)c2nc(-c3cccnc3)n(Cc3ccccc3)c2n1 :: 1.986
CCOc1nc(C)c2nc(-c3cncc(F)c3)n(Cc3ccc(CN4C[C@@H]5C[C@H]4CN5C)cc3)c2n1 :: 0.01692
CCN(CCO)CCCC(C)Nc1ccnc2cc(Cl)ccc12 (stereo not shown) [HCQ, hydroxychloroquine, reference compound] :: 1.681
CCOc1nc(N)c2nc(-c3cncc(F)c3)n(Cc3ccc(CN4C[C@@H]5C[C@H]4CN5C)cc3)c2n1 :: 0.1771

====

Listed here are molecules together with their documented human TLR7 activity, reporter signal.
- Study system: TLR7 (Homo sapiens)
- Assay overview: Human TLR7 reporter gene inhibitory activity assay (NF-κB/SEAP HEK293)
- Assay type: cell-based
- Parameters: host or cells: HEK293 (TLR7/NF-κB/SEAPorter)
- Experimental setup: compound 0.01 nM (as headed); R848 200 nM
Metric name: human TLR7 activity, reporter signal

CCN(CCO)CCCC(C)Nc1ccnc2cc(Cl)ccc12 (stereo not shown) [HCQ, hydroxychloroquine, reference compound] :: 1.7427
CCOc1nc(C)c2nc(-c3cncc(F)c3)n(Cc3ccc(CN4C[C@@H]5C[C@H]4CN5C)cc3)c2n1 [Cpd-7] :: 1.179
CCCCOc1nc(N)c2nc(-c3cccnc3)n(Cc3ccccc3)c2n1 [Cpd-5] :: 1.8207
CCOc1nc(N)c2nc(-c3cncc(F)c3)n(Cc3ccc(CN4C[C@@H]5C[C@H]4CN5C)cc3)c2n1 [Cpd-6] :: 1.354

====

- Study system: human TLR9 (Homo sapiens, UniProt Q9NR96)
- Construct: host or cells: HEK293 (TLR9/NF-κB/SEAPorter)
- Assay overview: Human TLR9 reporter gene inhibitory activity assay (NF-κB/SEAP HEK293)
- Format: cell-based
- Experimental setup: compound 100 nM (as headed); CpG2006 500 nM
Metric name: human TLR9 activity, reporter signal

CCCCOc1nc(N)c2nc(-c3cccnc3)n(Cc3ccccc3)c2n1 [Cpd-5] :: 0.2357
CCOc1nc(C)c2nc(-c3cncc(F)c3)n(Cc3ccc(CN4C[C@@H]5C[C@H]4CN5C)cc3)c2n1 [Cpd-7] :: -0.002975
CCOc1nc(N)c2nc(-c3cncc(F)c3)n(Cc3ccc(CN4C[C@@H]5C[C@H]4CN5C)cc3)c2n1 [Cpd-6] :: 0.01837
CCN(CCO)CCCC(C)Nc1ccnc2cc(Cl)ccc12 (stereo not shown) [HCQ, hydroxychloroquine, reference compound] :: -0.00085

====

- Study system: human TLR9 (Homo sapiens)
- Construct: host or cells: HEK293 (TLR9/NF-κB/SEAPorter)
- Assay overview: Human TLR9 reporter gene inhibitory activity assay (NF-κB/SEAP HEK293)
- Format: cell-based
- Experimental setup: compound 10 nM (as headed); CpG2006 500 nM
Measured human TLR9 activity, reporter signal accompanies every entry in the list below.
Metric name: human TLR9 activity, reporter signal

CCOc1nc(C)c2nc(-c3cncc(F)c3)n(Cc3ccc(CN4C[C@@H]5C[C@H]4CN5C)cc3)c2n1 [Cpd-7] :: 0.2034
CCOc1nc(N)c2nc(-c3cncc(F)c3)n(Cc3ccc(CN4C[C@@H]5C[C@H]4CN5C)cc3)c2n1 [Cpd-6] :: 0.265
CCCCOc1nc(N)c2nc(-c3cccnc3)n(Cc3ccccc3)c2n1 [Cpd-5] :: 0.3129
CCN(CCO)CCCC(C)Nc1ccnc2cc(Cl)ccc12 (stereo not shown) [HCQ, hydroxychloroquine, reference compound] :: -0.013
